Every entry's value here was drawn from PubChem BioAssay (NCI).

System: SK-MEL-2 melanoma
Assay: NCI tumour cell line growth inhibition, 48 h
# GI50 per record follows

inputSmiles | GI50
Cc1ccc(-c2cc(-c3ccc(C)cc3)nc(N3CCN(CCNc4ccnc5cc(Cl)ccc45)CC3)n2)cc1 | 7.89 µM
C=C(C)[C@@H]1CC[C@]2(C(=O)O)CC[C@]3(C)[C@H](CC[C@@H]4[C@@]5(C)C/C(=C/c6cccc(I)c6)C(=O)C(C)(C)[C@@H]5CC[C@]43C)[C@@H]12 | 2.4 µM

We next turn to a different molecule, shown below.
Prompt: State, in one line, measured GI50 of `COc1ccc(-n2cc(-c3cc(OC)c(OC)c(OC)c3)[nH]c2=S)cc1Cl`
Response: > 100 µM

----------
System: KM12 colon
Assay: NCI tumour cell line growth inhibition, 48 h
# TGI per record follows

Some molecules with known TGI results, for comparison:
molecule | experimentalValue
CC(=O)OCCOCNC(=S)N/N=C(\C)c1cccs1 | > 100 µM
O=C1CC(c2ccsc2)c2snc(-c3ccc(Cl)cc3)c2N1 (stereo unspecified) | > 100 µM
Cc1cn([C@H]2C[C@H](O)[C@@H](CO)O2)c(=O)nc1N | > 100 µM
Fc1cccc(Cl)c1Cn1c(-c2c(F)cccc2Cl)nc2ccccc21 | 42.4 µM

Prompt: State, in one line, measured TGI of `O=C1CCCCN1C(=O)c1ccc([N+](=O)[O-])cc1`
Response: > 100 µM

Prompt: State, in one line, measured TGI of `Nc1c(C(=O)NC23CC4CC(CC(C4)C2)C3)[n+]([O-])c2ccccc2[n+]1[O-]`
Response: > 100 µM

----------
# TGI per record follows
System: 786-0 renal
Experiment: NCI tumour cell line growth inhibition, 48 h

Some compounds with known TGI results, for comparison:
compound | TGI
COc1cc2cnc(-c3ccccc3)cc2cc1OC | > 100 µM
CCOC(=O)C(=O)Nc1ccccc1OCC | > 100 µM

Prompt: State, in one line, measured TGI of `COc1cc(C(=O)O/N=C(\N)Cc2cccc3ccccc23)cc(OC)c1OC`
Response: 26.7 µM

Prompt: State, in one line, measured TGI of `Cc1ccc(/C=C/C(=O)c2ccc([N+](=O)[O-])cc2)cc1`
Response: > 100 µM

----------
Test system: NCI-H522 lung
Assay: NCI tumour cell line growth inhibition, 48 h; in the data active = GI50 below about 0.43 µM; inactive = the rest
# valid calls are active, inactive; nothing else

Prompt: Record lookup: outcome of this test for `CC[C@H](C)[C@H](NC(=O)NC(C)(C)C)C(=O)N(C)[C@H](C[C@@H](OC(C)=O)c1nc(C(=O)N[C@@H](Cc2ccccc2)C[C@H](C)C(=O)OC)cs1)C(C)C` ?
Response: active

Prompt: Record lookup: outcome of this test for `OCCn1cc(-c2cnc3nnn(Cc4ccc5ncccc5c4)c3n2)cn1` ?
Response: inactive

Prompt: Record lookup: outcome of this test for CCOC(=O)c1ccccc1SC(C[N+](=O)[O-])c1ccccc1 (configuration not stated) ?
Response: inactive

----------
Test system: K-562 leukemia
Assay: NCI tumour cell line growth inhibition, 48 h
readoutKind: TGI (µM)
Just the number please, in µM, no unit attached.

Some molecules with known TGI results, for comparison:
molecule | TGI, µM
CC(=O)c1[nH]c(Nc2ccc(C)cc2)c(C(=S)Nc2ccccc2)c1N | 72.2
Cn1cnc(SC2=C3C(=O)C=C4S[C@H]5C[C@]42c2c(c(O)c4c6c2=[N+]3CCC=6C=N4)N5)c1CC(N)C(=O)O (stereo not given in full) | 41.3
O=C(Oc1ccccc1Cl)c1ccccc1Nc1cccc(C(F)(F)F)c1 | 8.43

Prompt: State, in one line, measured TGI of O=S1c2ccccc2NC(c2ccc3ccccc3c2)CC1c1ccccc1 (stereo not given)
Response: 37.5
